Values compiled from patent US9822106B2.

- MEASUREMENT TARGET: LTA4-h (Homo sapiens)
- Sequence (P09960 whole entry): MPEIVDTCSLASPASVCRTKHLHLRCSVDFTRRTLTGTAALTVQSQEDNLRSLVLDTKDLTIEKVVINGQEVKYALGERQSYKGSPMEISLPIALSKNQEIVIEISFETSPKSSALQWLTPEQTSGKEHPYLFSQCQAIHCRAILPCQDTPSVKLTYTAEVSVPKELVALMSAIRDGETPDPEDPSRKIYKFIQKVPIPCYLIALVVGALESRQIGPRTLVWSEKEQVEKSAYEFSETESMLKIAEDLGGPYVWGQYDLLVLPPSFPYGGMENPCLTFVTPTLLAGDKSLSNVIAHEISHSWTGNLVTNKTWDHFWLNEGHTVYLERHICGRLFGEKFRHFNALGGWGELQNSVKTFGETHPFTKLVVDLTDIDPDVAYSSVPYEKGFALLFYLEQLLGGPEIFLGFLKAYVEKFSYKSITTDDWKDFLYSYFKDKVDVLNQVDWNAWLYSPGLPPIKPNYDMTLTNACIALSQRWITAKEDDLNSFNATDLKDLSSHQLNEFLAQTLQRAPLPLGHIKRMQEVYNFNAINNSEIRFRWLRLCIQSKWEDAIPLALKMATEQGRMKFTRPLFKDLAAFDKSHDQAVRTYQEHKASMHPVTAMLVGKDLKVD
- TEST DESCRIPTION: hydrolase assay (hydrolase-homogeneous time resolved fluorescence)
- Format: biochemical
pIC50: −log10 of the molar value.
Rule: pIC50 of 8 or more gives condition met; anything lower gives condition not met.

- COMPOUND: "O=C(O)C1CCCN(c2ccc(CNCc3ccc(Oc4ccc(Cl)cc4)cc3)cn2)C1 (stereo not drawn)"
  LABEL: "condition met"
- COMPOUND: "CN(Cc1ccc(Oc2ccc(-c3ncco3)cc2)cc1)Cc1cccnc1Oc1ccc(C(=O)O)cc1"
  LABEL: "condition not met"
- COMPOUND: "O=C(O)c1cccc(Oc2ncccc2CNCc2ccc(Oc3ccc(-c4ncco4)cc3)cc2)c1"
  LABEL: "condition not met"
- COMPOUND: "O=C(O)C1CCCN(c2ccc(CNCCc3ccc(Oc4ncccn4)cc3)cc2)C1 (stereo not drawn)"
  LABEL: "condition not met"
- COMPOUND: "O=C(O)C1CCCN(c2ccc(CNCc3ccc(Oc4ccc(-c5ncco5)cc4)cc3)cn2)C1 (stereo not drawn)"
  LABEL: "condition met"
